study_target: Glycogen synthase kinase-3 beta (Homo sapiens)
test_description: Inhibition of GSK3-beta (unknown origin) at 10 uM incubated for 60 mins by ATP-Glo luminescent assay
Sequence (P49841 whole entry, looked up): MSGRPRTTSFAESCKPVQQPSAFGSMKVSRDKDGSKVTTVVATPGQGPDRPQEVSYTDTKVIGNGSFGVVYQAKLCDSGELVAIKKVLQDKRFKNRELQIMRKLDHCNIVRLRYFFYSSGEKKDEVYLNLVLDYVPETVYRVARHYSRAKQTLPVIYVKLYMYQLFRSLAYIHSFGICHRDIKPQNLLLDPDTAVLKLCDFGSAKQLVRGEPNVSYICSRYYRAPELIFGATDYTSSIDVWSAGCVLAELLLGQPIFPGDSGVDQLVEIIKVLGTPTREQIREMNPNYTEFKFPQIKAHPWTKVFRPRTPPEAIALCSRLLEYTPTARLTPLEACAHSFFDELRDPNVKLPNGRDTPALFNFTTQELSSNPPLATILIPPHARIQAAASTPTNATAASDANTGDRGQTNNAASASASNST
// thresholds for inhibition classes: low bracket (below 40%), middle bracket (40% to below 60%), high bracket (60% or more)

These solved cases illustrate the format of a correct answer.
>  <smiles_data>
O=C(NCCC1CCN(Cc2ccc(F)cc2)CC1)c1ccc2c(c1)[nH]c1c(NC(=O)C3CC3)nccc12

>  <label>
low bracket

$$$$
>  <smiles_data>
O=C(NC1CCN(Cc2ccc(F)cc2)CC1)c1ccc2c(c1)[nH]c1c(NC(=O)C3CC3)nccc12

>  <label>
high bracket

$$$$
>  <smiles_data>
O=C(NC1CCN(Cc2ccc(C(F)(F)F)cc2)CC1)c1ccc2c(c1)[nH]c1c(NC(=O)C3CC3)nccc12

>  <label>
high bracket

$$$$

Q: Please classify: `O=C(NCC1CCN(Cc2c(Cl)cccc2Cl)CC1)c1ccc2c(c1)[nH]c1c(NC(=O)C3CC3)nccc12`
Ans: low bracket

====

Recorded IC50 values (Glycogen synthase kinase-3 beta (Homo sapiens, UniProt P49841)) are given below.
Kindly write the number and append the unit.

>  <smiles_data>
O=C(NCCC1CCN(Cc2ccccc2F)CC1)c1ccc2c(c1)[nH]c1c(NC(=O)C3CC3)nccc12

>  <IC50>
6.78 µM

$$$$

Let's switch to this molecule now.
Q: # get_value(readout='IC50', item= `COC(=O)c1ccc2c(c1)[nH]c1c(NC(=O)C3CC3)nccc12` )
Ans: 0.07 µM

====

Some compounds, each annotated with its measured inhibition.
study_target: UniProt:P81908
Sequence (P81908 whole entry): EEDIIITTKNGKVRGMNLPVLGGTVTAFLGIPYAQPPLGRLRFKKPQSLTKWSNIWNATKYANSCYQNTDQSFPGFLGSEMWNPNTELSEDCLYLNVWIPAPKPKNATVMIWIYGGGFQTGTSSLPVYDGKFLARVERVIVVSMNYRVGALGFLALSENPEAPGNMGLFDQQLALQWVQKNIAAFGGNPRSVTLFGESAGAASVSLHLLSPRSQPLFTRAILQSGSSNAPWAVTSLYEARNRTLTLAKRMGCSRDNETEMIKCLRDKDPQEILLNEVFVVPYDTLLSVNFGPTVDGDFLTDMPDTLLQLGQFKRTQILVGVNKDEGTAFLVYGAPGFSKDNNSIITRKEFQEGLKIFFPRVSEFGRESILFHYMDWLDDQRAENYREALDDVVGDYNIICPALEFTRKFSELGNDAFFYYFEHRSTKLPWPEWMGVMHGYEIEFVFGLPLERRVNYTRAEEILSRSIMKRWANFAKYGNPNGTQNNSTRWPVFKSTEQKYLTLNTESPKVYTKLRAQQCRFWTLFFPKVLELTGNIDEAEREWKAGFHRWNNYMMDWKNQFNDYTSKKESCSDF
test_description: Inhibition of equine serum BChE at 50 uM using butyrylthiocholine iodide as substrate preincubated with enzyme for 20 mins followed by substrate addition and measured after 20 mins by Ellman's method
Format: cell-free
reported_conditions: time 40.0 min
Return type: number; implicit unit %.

Some solved entries appear below for comparison.
>  <compound>
O=C(NCC1CCN(Cc2cc(F)cc(F)c2)CC1)c1ccc2c(c1)[nH]c1c(NC(=O)C3CC3)nccc12

>  <inhibition, %>
10.4

$$$$
>  <compound>
O=C(NCCC1CCN(Cc2ccccc2F)CC1)c1ccc2c(c1)[nH]c1c(NC(=O)C3CC3)nccc12

>  <inhibition, %>
63

$$$$
>  <compound>
O=C(NC1CCN(Cc2ccc(F)cc2)CC1)c1ccc2c(c1)[nH]c1c(NC(=O)C3CC3)nccc12

>  <inhibition, %>
36.9

$$$$
>  <compound>
O=C(NCC1CCN(Cc2ccccc2F)CC1)c1ccc2c(c1)[nH]c1c(NC(=O)C3CC3)nccc12

>  <inhibition, %>
55.6

$$$$
>  <compound>
O=C(NCC1CCN(Cc2ccccc2)CC1)c1ccc2c(c1)[nH]c1c(NC(=O)C3CC3)nccc12

>  <inhibition, %>
37.2

$$$$
>  <compound>
O=C(NC1CCN(Cc2cccc(F)c2)CC1)c1ccc2c(c1)[nH]c1c(NC(=O)C3CC3)nccc12

>  <inhibition, %>
30.8

$$$$
>  <compound>
O=C(NCC1CCN(Cc2cccc(F)c2)CC1)c1ccc2c(c1)[nH]c1c(NC(=O)C3CC3)nccc12

>  <inhibition, %>
32.6

$$$$
>  <compound>
O=C(NCCC1CCN(Cc2ccccc2)CC1)c1ccc2c(c1)[nH]c1c(NC(=O)C3CC3)nccc12

>  <inhibition, %>
68.3

$$$$

Q: Dear colleague, I am looking for the recorded inhibition of the following compound: `O=C(NC1CCN(Cc2cccc([N+](=O)[O-])c2)CC1)c1ccc2c(c1)[nH]c1c(NC(=O)C3CC3)nccc12`
Ans: 20.1

Q: Request the reported inhibition associated with `Cc1ccc(CN2CCC(CNC(=O)c3ccc4c(c3)[nH]c3c(NC(=O)C5CC5)nccc34)CC2)cc1`
Ans: 15.3

Q: Could you share which inhibition value was measured for `O=C(NCCC1CCN(Cc2ccc(F)cc2)CC1)c1ccc2c(c1)[nH]c1c(NC(=O)C3CC3)nccc12` ?
Ans: 68.7
